Tested system: Adenosine receptor A1 (Homo sapiens)
Sequence (P30542 whole entry): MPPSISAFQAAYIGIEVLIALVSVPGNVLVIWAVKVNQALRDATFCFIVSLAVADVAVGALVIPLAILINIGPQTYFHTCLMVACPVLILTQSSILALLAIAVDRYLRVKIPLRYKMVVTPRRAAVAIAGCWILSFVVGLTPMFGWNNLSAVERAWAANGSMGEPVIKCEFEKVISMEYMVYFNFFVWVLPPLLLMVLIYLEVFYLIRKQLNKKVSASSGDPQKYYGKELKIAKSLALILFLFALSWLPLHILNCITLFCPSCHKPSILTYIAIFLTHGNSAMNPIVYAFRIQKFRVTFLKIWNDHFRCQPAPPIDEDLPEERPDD
Measurement protocol: Displacement of [3H]DPCPX from human adenosine A1 receptor expressed in CHO-K1 cell membrane preincubated for 5 mins followed measured after 50 mins by radioligand competition binding assay
Measurement name: IC50 (nM)

>>> result_value("Cc1ccc(-c2cn3c(nc4ccccc43)c(N)n2)cc1")
63.9
>>> result_value("COc1cccc(-c2cn3c(nc4cc(F)c(F)cc43)c(N)n2)c1")
460
>>> result_value("Nc1nc(-c2cccc(Br)c2)cn2c1nc1ccccc12")
92.1
>>> result_value("Nc1nc(-c2ccco2)cn2c1nc1ccccc12")
6.3
>>> result_value("Nc1nc(Cc2ccccc2)cn2c1nc1ccccc12")
733
>>> result_value("Nc1nc(-c2ccc(F)cc2F)cn2c1nc1ccccc12")
4.4
>>> result_value("COc1cccc(-c2cn3c(nc4ccccc43)c(N)n2)c1")
95.8
>>> result_value("CC(=O)Nc1cccc(-c2cn3c(nc4ccccc43)c(N)n2)c1")
17

###

Tested system: Adenosine receptor A2a (Homo sapiens)
Measurement protocol: Displacement of [3H]-ZM241385 from human recombinant A2A receptor expressed in human HEK293 cell membrane preincubated for 5 mins and measured after 1.5 hrs by radioligand competition binding assay
# if measured IC50 < 50 nM: 1 (yes)  # else: 0 (no)

>>> classification("Nc1nc(-c2ccc(F)cc2F)cn2c1nc1ccccc12")
"1 (yes)"
>>> classification("Cc1c(-c2ccccc2)nc(N)c2nc3ccccc3n12")
"0 (no)"
>>> classification("N#Cc1ccc(-c2cn3c(nc4ccccc43)c(N)n2)cc1")
"0 (no)"
>>> classification("Nc1nc(-c2ccc(O)cc2)cn2c1nc1ccccc12")
"0 (no)"
>>> classification("Nc1nc(C2CCN(CC(=O)N3CCOCC3)CC2)cn2c1nc1ccccc12")
"0 (no)"
>>> classification("Nc1nc(-c2ccc([N+](=O)[O-])cc2)cn2c1nc1ccccc12")
"0 (no)"
>>> classification("CC(C)(C)c1ccc(-c2cn3c(nc4ccccc43)c(N)n2)cc1")
"1 (yes)"
>>> classification("Nc1nc(-c2ccc(C(F)(F)F)cc2)cn2c1nc1ccccc12")
"1 (yes)"
>>> classification("Cc1ccc(-c2cn3c(nc4ccccc43)c(N)n2)cc1")
"1 (yes)"
>>> classification("COCCN1CCC(c2cn3c(nc4ccccc43)c(N)n2)CC1")
"0 (no)"

###

Tested system: Adenosine receptor A2a (Homo sapiens, UniProt P29274)
Sequence (P29274 whole entry): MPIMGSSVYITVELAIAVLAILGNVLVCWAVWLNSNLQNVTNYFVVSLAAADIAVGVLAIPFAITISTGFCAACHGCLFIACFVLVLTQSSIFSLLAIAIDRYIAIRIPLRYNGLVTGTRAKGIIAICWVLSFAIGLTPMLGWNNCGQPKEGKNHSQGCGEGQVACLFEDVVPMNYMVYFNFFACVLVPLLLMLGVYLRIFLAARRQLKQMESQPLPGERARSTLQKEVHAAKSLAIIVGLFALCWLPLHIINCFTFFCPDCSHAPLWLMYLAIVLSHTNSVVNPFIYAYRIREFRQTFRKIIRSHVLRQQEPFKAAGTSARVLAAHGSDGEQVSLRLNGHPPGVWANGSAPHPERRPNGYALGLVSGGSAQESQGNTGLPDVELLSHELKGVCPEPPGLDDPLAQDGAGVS
Measurement protocol: Displacement of [3H]-ZM241385 from human recombinant A2A receptor expressed in human HEK293 cell membrane preincubated for 5 mins and measured after 1.5 hrs by radioligand competition binding assay
Each entry below lists one item and its recorded IC50 value.
Measurement name: IC50 (nM)

>>> result_value("Nc1nc(-c2ccc(Br)cc2)cn2c1nc1ccccc12")
38.4
>>> result_value("COc1ccccc1-c1cn2c(nc3ccccc32)c(N)n1")
83.1
>>> result_value("Nc1nc(CO)cn2c1nc1ccccc12")
149
>>> result_value("Nc1nc(-c2ccc(OC(F)(F)F)cc2)cn2c1nc1ccccc12")
131

###

Each entry below lists one item and its recorded IC50 value.
Tested system: Adenosine receptor A2a (Homo sapiens)
Measurement protocol: Displacement of [3H]-ZM241385 from human recombinant A2A receptor expressed in human HEK293 cell membrane preincubated for 5 mins and measured after 1.5 hrs by radioligand competition binding assay
Measurement name: IC50 (nM)

>>> result_value("CC(=O)Nc1cccc(-c2cn3c(nc4ccccc43)c(N)n2)c1")
48.6
>>> result_value("Nc1nc(-c2ccco2)cn2c1nc1ccccc12")
32.6
>>> result_value("Nc1nc(-c2ccccc2)cn2c1nc1ccccc12")
46.5
